- Tested on: HepG2-TUBA1B-RELA
- procedure_details: phenotypically active (imaging signature differs from DMSO and reproducible) at any of 0.3-9 uM (binary (1 = active, 0 = inactive)); higher = active
- experimental_context: treatment time: 24 h
Counter-ions that a name gives are not always drawn.
measure: phenotypically active
No unit in the answer, please; the number alone is enough.

The cases that follow already have their phenotypically active on record.
>>> value_measured("CNC(=O)Oc1ccc2c(c1)[C@]1(C)CCN(C)[C@@H]1N2C [Eserine sulfate, physostigmine sulfate]")
0
>>> value_measured("CCC(=O)C(CC(C)N(C)C)(c1ccccc1)c1ccccc1 (stereo not drawn)")
0
>>> value_measured("C=C[C@]12CN(C)[C@@H]3[C@H]4CO[C@H](C[C@H]41)[C@]1(C(=O)Nc4ccccc41)[C@@H]32")
0
>>> value_measured("O=c1[nH]c2ccccc2n1C1CCN(CCCC(c2ccc(F)cc2)c2ccc(F)cc2)CC1 [pimozide]")
1
>>> value_measured("CCCN1C[C@H](CSC)C[C@@H]2c3cccc4[nH]cc(c34)C[C@H]21 [pergolide]")
0
>>> value_measured("COc1ccc2c(c[n+](C)c3c4cc5c(cc4ccc23)OCO5)c1OC [Chelerythrine chloride]")
0
>>> value_measured("CCN(CC)CCN1C(=O)CN=C(c2ccccc2F)c2cc(Cl)ccc21")
0
>>> value_measured("N#CC(C#N)=Cc1ccc(O)c(O)c1")
0
>>> value_measured("C[C@H](N)Cc1ccccc1")
0
>>> value_measured("O=C1C=C2C=C[C@@H]3C[C@@]2(O1)[C@H]1CCCCN31")
0

Lab note: need phenotypically active with HepG2-TUBA1B-RELA for entry C[C@@H]1C[C@@H]([C@H](O)CC2CC(=O)NC(=O)C2)C(=O)[C@@H](C)C1 [Cycloheximide] , please look it up.
1

Lab note: need phenotypically active with HepG2-TUBA1B-RELA for entry C=C1[C@H]2C[C@@]3([C@@H]1O)[C@@H](C[C@@H]2O)[C@]12[C@@H]4C[C@H]3[C@H]1N(CC)C[C@]4(C)CC[C@@H]2O , please look it up.
0

Lab note: need phenotypically active with HepG2-TUBA1B-RELA for entry C/C(O)=C(/C#N)C(=O)Nc1cc(Br)ccc1Br , please look it up.
0

Lab note: need phenotypically active with HepG2-TUBA1B-RELA for entry CCCCCC[C@H]1C(=O)O[C@H](C)[C@H](NC(=O)c2cccc(NC=O)c2O)C(=O)O[C@@H](C)[C@@H]1OC(=O)CC(C)C [antimycin a] , please look it up.
1

Lab note: need phenotypically active with HepG2-TUBA1B-RELA for entry CN1C(CC(O)c2ccccc2)CCCC1CC(O)c1ccccc1 (stereo not drawn) [Lobelanidine hydrochloride] , please look it up.
0

Lab note: need phenotypically active with HepG2-TUBA1B-RELA for entry C=C[C@H]1C[N@@]2CC[C@H]1C[C@H]2[C@H](O)c1ccnc2ccccc12 [(-)-Cinchonidine] , please look it up.
0

Lab note: need phenotypically active with HepG2-TUBA1B-RELA for entry Cc1sc2c(c1C)C(c1ccc(Cl)cc1)=N[C@@H](CC(=O)OC(C)(C)C)c1nnc(C)n1-2 , please look it up.
1

Lab note: need phenotypically active with HepG2-TUBA1B-RELA for entry Cc1sc2c(c1C)C(c1ccc(Cl)cc1)=N[C@H](CC(=O)OC(C)(C)C)c1nnc(C)n1-2 , please look it up.
0
